- Test system: Botryococcus braunii UTEX 572
- Run Description: Different fixed carbon sources on heterotrophic growth, visual score
- Format: cell-based
- Parameters: key: Growth was scored with +'s by visual examination of the cultures; ++: Growth was scored with +'s by visual examination of the cultures; +++: Growth was scored with +'s by visual examination of the cultures; ++++: Growth was scored with +'s by visual examination of the cultures; +++++: Growth was scored with +'s by visual examination of the cultures
- Measurement Context: UTEX 572, 0.5% carbon source in 1 ml BG11, dark, 4 weeks
Endpoint: heterotrophic growth score, 0.5%

Compound	Result
O=C[C@H](O)[C@@H](O)[C@@H](O)[C@H](O)CO	+++
O=C[C@@H](O)[C@H](O)[C@H](O)CO	+
O=C[C@H](O)[C@@H](O)[C@H](O)[C@H](O)CO	++++
CC(=O)[O-].[Na+] [acetate, sodium acetate]	+
O=C(CO)[C@@H](O)[C@H](O)[C@H](O)CO	++

Then this compound:
Input: Report its heterotrophic growth score, 0.5% with Botryococcus braunii UTEX 572 as the test system: "OCC(O)CO"
Output: +
